From: PubChem BioAssay AID1963831

Reported viability, T/C values follow for various compounds
# Tested on: 889142-216-R-J1-PDC complex spheroid viability;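 also: spheroids exposed to compounds for seven days; 100% = DMSO vehicle control viability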
# assay_comment: Anticancer human tumor 889142-216-R-J1-PDC patient-derived bladder carcinoma cell line growth inhibition [POLQ]
# condition_description: second compound 0.1 µM; first compound 10 µM; stronger effect = lower value
readout: viability, T/C (%)

[[record]]
compound = "CC1COCCN1c1cc(C2(S(C)(=N)=O)CC2)nc(-c2ccnc3[nH]ccc23)n1 (stereo unspecified) + Nc1ccc(C#CCN(C(=O)Cc2ncc(C(F)(F)F)cc2C(F)(F)F)c2ccc(F)cc2)nn1"
assay_target = "889142-216-R-J1-PDC complex spheroid viability"
numeric_readout = 42.4

[[record]]
compound = "CNCc1ccc(-c2[nH]c3cc(F)cc4c3c2CCNC4=O)cc1 + Cc1cccc(N(C)C(=O)C2C(O)CCN2c2nc(C)cc(C(F)(F)F)c2C#N)c1"
assay_target = "889142-216-R-J1-PDC complex spheroid viability"
numeric_readout = 78.5

[[record]]
compound = "O=C(c1cc(Cc2n[nH]c(=O)c3ccccc23)ccc1F)N1CCN(C(=O)C2CC2)CC1 + Nc1ccc(C#CCN(C(=O)Cc2ncc(C(F)(F)F)cc2C(F)(F)F)c2ccc(F)cc2)nn1"
assay_target = "889142-216-R-J1-PDC complex spheroid viability"
numeric_readout = 66.6

[[record]]
compound = "CCc1cc2c(N3CCc4c(cc(Cn5ccnc5)cc4-c4cn(C)nc4C(F)(F)F)C3=O)cc(C)nc2c(OC)n1 + Nc1ccc(C#CCN(C(=O)Cc2ncc(C(F)(F)F)cc2C(F)(F)F)c2ccc(F)cc2)nn1"
assay_target = "889142-216-R-J1-PDC complex spheroid viability"
numeric_readout = 79.5

[[record]]
compound = "O=C(Nc1ccc(O)c(NS(=O)(=O)c2ccc(F)cc2)c1)c1ccc(-c2ccccc2)cc1 + Cc1cccc(N(C)C(=O)C2C(O)CCN2c2nc(C)cc(C(F)(F)F)c2C#N)c1"
assay_target = "889142-216-R-J1-PDC complex spheroid viability"
numeric_readout = 86.4

[[record]]
compound = "COc1cc(C2c3cc4c(cc3C(OC3OC5COC(C)OC5C(O)C3O)C3COC(=O)C23)OCO4)cc(OC)c1O (stereo unspecified) + Nc1ccc(C#CCN(C(=O)Cc2ncc(C(F)(F)F)cc2C(F)(F)F)c2ccc(F)cc2)nn1"
assay_target = "889142-216-R-J1-PDC complex spheroid viability"
numeric_readout = 61.5

[[record]]
compound = "COc1cccc2c1C(=O)c1c(O)c3c(c(O)c1C2=O)CC(O)(C(=O)CO)CC3OC1CC(N)C(O)C(C)O1 (stereo unspecified) + Nc1ccc(C#CCN(C(=O)Cc2ncc(C(F)(F)F)cc2C(F)(F)F)c2ccc(F)cc2)nn1"
assay_target = "889142-216-R-J1-PDC complex spheroid viability"
numeric_readout = 1.72

[[record]]
compound = "O=C(c1cc(Cc2n[nH]c(=O)c3ccccc23)ccc1F)N1CCN(C(=O)C2CC2)CC1 + COC1C(OC(N)=O)C(O)C(Oc2ccc3c(O)c(NC(=O)c4ccc(O)c(CC=C(C)C)c4)c(=O)oc3c2C)OC1(C)C"
assay_target = "889142-216-R-J1-PDC complex spheroid viability"
numeric_readout = 83.5

[[record]]
compound = "CNCc1ccc(-c2[nH]c3cc(F)cc4c3c2CCNC4=O)cc1 + COC1C(OC(N)=O)C(O)C(Oc2ccc3c(O)c(NC(=O)c4ccc(O)c(CC=C(C)C)c4)c(=O)oc3c2C)OC1(C)C"
assay_target = "889142-216-R-J1-PDC complex spheroid viability"
numeric_readout = 85.4

[[record]]
compound = "C=CC(=O)N1CCN(c2nc(=O)n(-c3c(C)ccnc3C(C)C)c3nc(-c4c(O)cccc4F)c(F)cc23)C(C)C1 (stereo unspecified) + COC1C(OC(N)=O)C(O)C(Oc2ccc3c(O)c(NC(=O)c4ccc(O)c(CC=C(C)C)c4)c(=O)oc3c2C)OC1(C)C"
assay_target = "889142-216-R-J1-PDC complex spheroid viability"
numeric_readout = 82.4

[[record]]
compound = "COc1cc2cc(C(=O)CCC(=O)O)sc2cc1OC + Cc1cccc(N(C)C(=O)C2C(O)CCN2c2nc(C)cc(C(F)(F)F)c2C#N)c1"
assay_target = "889142-216-R-J1-PDC complex spheroid viability"
numeric_readout = 90.6

